assaySystem: Estrogen receptor (Homo sapiens, UniProt P03372); note: assay procedure not described here
Sequence (P03372 whole entry): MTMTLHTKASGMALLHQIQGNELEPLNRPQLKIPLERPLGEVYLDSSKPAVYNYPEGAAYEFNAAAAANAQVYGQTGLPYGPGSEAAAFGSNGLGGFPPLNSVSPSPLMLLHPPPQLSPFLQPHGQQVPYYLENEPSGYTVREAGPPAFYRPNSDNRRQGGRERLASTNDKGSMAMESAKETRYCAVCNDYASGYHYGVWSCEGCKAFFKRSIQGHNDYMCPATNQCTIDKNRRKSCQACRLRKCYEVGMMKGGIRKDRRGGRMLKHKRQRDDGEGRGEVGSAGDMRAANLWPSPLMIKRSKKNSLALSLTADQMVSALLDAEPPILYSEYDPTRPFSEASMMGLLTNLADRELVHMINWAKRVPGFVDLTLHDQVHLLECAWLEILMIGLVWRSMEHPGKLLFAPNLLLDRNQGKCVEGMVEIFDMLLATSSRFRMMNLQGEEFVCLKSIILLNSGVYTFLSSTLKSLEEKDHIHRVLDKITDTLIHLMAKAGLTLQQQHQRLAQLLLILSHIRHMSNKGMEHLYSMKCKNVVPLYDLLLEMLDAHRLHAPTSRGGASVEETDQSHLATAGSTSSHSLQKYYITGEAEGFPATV
Type: functional

compound	assaySystem	AC50
O=C(OCC(O)CO)c1ccccc1Nc1ccnc2cc(Cl)ccc12 (stereo unspecified) [GLAFENINE]	Estrogen receptor (Homo sapiens, UniProt P03372)	> 10 µM
CNC1Cc2ccccc2N(C)c2ccccc21 (stereo unspecified) [METAPRAMINE]	Estrogen receptor (Homo sapiens, UniProt P03372)	> 30 µM
N[C@@H]1[C@H]2CN(c3nc4c(cc3F)c(=O)c(C(=O)O)cn4-c3ccc(F)cc3F)C[C@@H]12 [TROVAFLOXACIN]	Estrogen receptor (Homo sapiens, UniProt P03372)	> 30 µM
c1cnc(N2CCN(Cc3ccc4c(c3)OCO4)CC2)nc1 [PIRIBEDIL]	Estrogen receptor (Homo sapiens, UniProt P03372)	> 30 µM
C1CCC(C(CC2CCCCN2)C2CCCCC2)CC1 (stereo unspecified) [PERHEXILINE]	Estrogen receptor (Homo sapiens, UniProt P03372)	> 30 µM
c1ccc([C@H]2CN3CCSC3=N2)cc1 [LEVAMISOLE]	Estrogen receptor (Homo sapiens, UniProt P03372)	> 30 µM

====

A set of molecules tested on Gamma-aminobutyric acid receptor subunit alpha-1 (Rattus norvegicus, UniProt P62813), with measured AC50:

molecule	AC50
Cc1ccccc1OCC(O)CO (centres undefined)	> 10 µM
N=C1CCCN1Cc1[nH]c(=O)[nH]c(=O)c1Cl	> 30 µM
CCC1=C(C)CN(C(=O)NCCc2ccc(S(=O)(=O)NC(=O)N[C@H]3CC[C@H](C)CC3)cc2)C1=O [GLIMEPIRIDE]	> 30 µM
CCc1oc2ccccc2c1C(=O)c1cc(I)c(O)c(I)c1	17.1 µM
COCc1c(C(C)C)nc(C(C)C)c(/C=C/[C@@H](O)C[C@@H](O)CC(=O)O)c1-c1ccc(F)cc1	> 30 µM
Cc1cn([C@H]2C[C@H](N=[N+]=[N-])[C@@H](CO)O2)c(=O)[nH]c1=O	> 30 µM
CN(C)CC(c1ccc(O)cc1)C1(O)CCCCC1 (centres undefined)	> 30 µM
Clc1cc(Cl)c(OCC#CI)cc1Cl	> 30 µM
O=c1[nH]c(=O)n(C2CCCO2)cc1F (centres undefined)	> 30 µM

====

Below are AC50 values measured for Melanocortin receptor 3 (Homo sapiens, UniProt P41968).

compound	AC50
Cc1cc(O)c(C(=O)N[C@@H](C(=O)N[C@@H]2C(=O)N3C(C(=O)O)=C(CSc4nnnn4C)CS[C@H]23)c2ccc(O)cc2)cn1 [CEFPIRAMIDE]	> 30 µM
CNS(=O)(=O)Cc1ccc2[nH]cc(CCN(C)C)c2c1	> 30 µM
O=C(O)CCCCCCNC1c2ccccc2CCc2ccccc21 [AMINEPTINE]	> 30 µM
Cc1nc([N+](=O)[O-])cn1-c1ccc([N+](=O)[O-])cc1 [NITREFAZOLE]	> 30 µM
CC(C)(C)C(=O)Oc1ccc(S(=O)(=O)Nc2ccccc2C(=O)NCC(=O)O)cc1	> 30 µM
CCCCCNC(=N)N/N=C/c1c[nH]c2ccc(OC)cc12 [TEGASEROD]	11.5 µM
Cc1cn([C@H]2C=C[C@@H](CO)O2)c(=O)[nH]c1=O [STAVUDINE]	> 30 µM
C[C@]12CC[C@H]3[C@@H](CCC4=CC(=O)CC[C@@]43C)[C@@H]1CC[C@@H]2O [TESTOSTERONE]	> 10 µM
c1cnc(N2CCN(Cc3ccc4c(c3)OCO4)CC2)nc1 [PIRIBEDIL]	> 30 µM
Nc1nc(N)nc(-c2cc(Cl)ccc2Cl)n1 [IRSOGLADINE]	> 30 µM
c1ccc([C@H]2CN3CCSC3=N2)cc1 [LEVAMISOLE]	> 30 µM
COC(=O)C1=C(C)NC(C)=C(C(=O)OC2CCCN(Cc3ccccc3)C2)C1c1cccc([N+](=O)[O-])c1 (centres undefined) [BENIDIPINE]	> 30 µM
C[C@H]1CNCCc2ccc(Cl)cc21 [LORCASERIN]	> 30 µM
CCCN(CCC)C(=O)C(CCC(=O)O)NC(=O)c1ccccc1 (centres undefined) [PROGLUMIDE]	> 30 µM
COc1ccc2c3c1O[C@H]1[C@@H](O)C=C[C@H]4[C@@H](C2)N(C)CC[C@@]341 [CODEINE]	> 30 µM
COc1cc2c(N)nc(N3CCN(C(=O)OCC(C)(C)O)CC3)nc2c(OC)c1OC [TRIMAZOSIN]	> 30 µM
CC=CC(=O)N(CC)c1ccccc1C	> 10 µM
CCCC(C)C1(CC)C(=O)NC(=O)NC1=O (centres undefined) [PENTOBARBITAL]	> 10 µM
O=[N+]([O-])c1cn2c(n1)OC[C@@H](OCc1ccc(OC(F)(F)F)cc1)C2 [PRETOMANID]	> 30 µM
